- Tested on: LOX IMVI viability, ATP luminescence, 8/24/48 h
- assay explanation: LOX IMVI melanoma cell viability loss, dose response, HRAS target identification, CellTiter-Glo ATP luminescence, 8/24/48 h, dry powder (AID 720602)
- measurement context: measured here: AC50 at 48 h
value type: AC50 (nM)
Write down the numeric answer in nM and omit the unit.

Would you please look over these solved cases?
COc1ccc(N(C(=O)CCl)C(C(=O)NCCc2ccccc2)c2cccs2)cc1Cl (stereo not given) = 122
COC(=O)c1ccc([C@@H]2c3[nH]c4ccccc4c3C[C@@H](C(=O)OC)N2C(=O)CCl)cc1 = 187
C#CCCCC(=O)NCCOCCOCCOc1ccc(N(C(=O)CCl)C(C(=O)NCCc2ccccc2)c2cccs2)cc1Cl (stereo not given) = 2640
CC(C)(C)OC(=O)NCCOCCOCCOc1ccc(N(C(=O)CCl)C(C(=O)NCCc2ccccc2)c2cccs2)cc1Cl (stereo not given) = 390

From here, focus on the item given below.
Inquiry: For the compound Cc1onc(C(=O)N2CCN(C(c3ccc(Cl)cc3)c3ccc(Cl)cc3)CC2)c1[N+](=O)[O-] , what AC50 is on record?
Reply text: 499

Where do these numbers come from? They come from PubChem BioAssay AID720602.
